Target: CTX-M-9 β-lactamase (Escherichia coli)
Test: biochemical
Type: biochemical
Conditions: read-out: Percentage inhibition with 16 μM inhibitor
Method: Reactions were initiated by the addition of 0.3 nM enzyme and monitored at 405 nm. […]
The threshold is inclusive: inhibition at 16 µM of exactly 80% counts as criterion met; values below receive criterion not met.

Exercise: Determine whether measured inhibition at 16 µM meets or exceeds 80% for `O=S(=O)(NCB(O)O)c1ccc(-c2nn[nH]n2)nc1`
Solution: criterion not met

====

Target: CTX-M-9 β-lactamase (Escherichia coli, UniProt Q9L5C8)
Sequence (Q9L5C8 29-291): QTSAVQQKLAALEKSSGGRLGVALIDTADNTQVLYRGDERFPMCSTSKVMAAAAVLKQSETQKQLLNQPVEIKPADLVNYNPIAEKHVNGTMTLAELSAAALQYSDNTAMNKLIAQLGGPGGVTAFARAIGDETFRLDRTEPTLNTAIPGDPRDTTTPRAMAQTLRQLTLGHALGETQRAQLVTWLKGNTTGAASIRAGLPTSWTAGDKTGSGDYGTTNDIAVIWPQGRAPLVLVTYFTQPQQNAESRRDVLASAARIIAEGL
Test: biochemical
Type: biochemical
Conditions: Table 4a; read-out: IC50
measured-parameter: IC50 (µM)
One number for each entry, in µM.

# compound-string, measured-parameter, unit, value-reported
measured = [
    ("O=S(=O)(Cc1ccccc1)NCB(O)O", "IC50", "µM", 6.87),
]

Then this compound:
Exercise: Give CTX-M-9 β-lactamase (Escherichia coli, UniProt Q9L5C8) IC50 for `O=C(O)c1ccc(CS(=O)(=O)NCB(O)O)cc1`
Solution: 1.5
